All figures here come from PubChem BioAssay AID799.

test: H69AR viability gain despite doxorubicin, primary screen, MRP-1 activator project, H69AR cells, CellTiter-Glo (AID 799); details: viability rescue, at 10 µM, stronger effect = higher value;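 also: MRP-1 overexpressing cells given doxorubicin 25 µM after compound pretreatment; 18-22 h compound pretreatment then 72 h with doxorubicin before readout; 0% = doxorubicin-only wells and 100% = vehicle-treated cells without doxorubicin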
Hit rate of the full screen: of about 140,000 compounds, about 840 (0.6%) were called active. Only a selection was taken, and actives are over-represented in it overall.
Quantity kind: viability increase (%)
Kindly answer with a numeric value in %, unit omitted.

Known results for compounds:
>>> readout_value("CC(C)CN(C(=O)CN1CCN(S(=O)(=O)c2ccccc2)CC1)c1c(N)n(CC(C)C)c(=O)[nH]c1=O")
0.86
>>> readout_value("Cn1nccc1CNC(=O)c1ccnn1C")
10.8
>>> readout_value("Cc1cccc(C)c1NC(=O)CSc1ccc([N+](=O)[O-])cn1")
-2.01
>>> readout_value("N=C(N)SCc1cccc2ccccc12")
8.11
>>> readout_value("COC(=O)N/N=C/c1ccc(-c2ccc(Cl)c(Cl)c2)o1")
9.18
>>> readout_value("CCCN(CC1COc2ccccc2O1)C(=S)Nc1ccc(C)cc1 (centres undefined)")
-0.89
>>> readout_value("CCC(=O)N1CCN=C1SCc1ccc(F)cc1")
5.28
>>> readout_value("OC(COc1ccc2c(c1)CCC2)CN1CCN(c2cccc(Cl)c2)CC1 (centres undefined)")
-3.05

input: Name the recorded viability increase for O=C(Nc1ccn(Cc2ccc(F)cc2)n1)c1ccncc1 .
output: 1.75
